biological target: CAMK2G (human) (UniProt Q13555); assay: KINOMEscan competition binding; details: compound 10.0 µM
Sequence (Q13555 whole entry, looked up): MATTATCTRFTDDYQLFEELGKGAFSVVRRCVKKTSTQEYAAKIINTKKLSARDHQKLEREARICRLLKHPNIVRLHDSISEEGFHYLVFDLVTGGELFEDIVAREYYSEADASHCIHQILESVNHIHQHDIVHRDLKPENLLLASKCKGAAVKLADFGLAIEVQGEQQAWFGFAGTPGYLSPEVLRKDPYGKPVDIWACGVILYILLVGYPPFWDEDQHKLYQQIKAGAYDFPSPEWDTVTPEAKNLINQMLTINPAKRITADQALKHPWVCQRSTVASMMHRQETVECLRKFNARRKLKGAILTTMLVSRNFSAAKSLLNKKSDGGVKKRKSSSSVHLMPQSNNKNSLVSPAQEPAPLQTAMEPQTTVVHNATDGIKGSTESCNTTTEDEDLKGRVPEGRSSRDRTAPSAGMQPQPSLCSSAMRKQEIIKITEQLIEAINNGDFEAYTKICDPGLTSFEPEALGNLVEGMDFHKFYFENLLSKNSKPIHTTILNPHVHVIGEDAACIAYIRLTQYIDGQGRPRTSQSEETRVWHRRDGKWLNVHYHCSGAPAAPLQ
In this section we review reported kinase still bound, per cent of control values for a set of compounds.
Kindly answer with a numeric value in %, unit omitted.

| Compound | Readout label | Result unit | Reported measurement |
| --- | --- | --- | --- |
| CC(=O)c1c(C)c2cnc(Nc3ccc(N4CCNCC4)cn3)nc2n(C2CCCC2)c1=O | kinase still bound, per cent of control | % | 11 |
| O=c1[nH]c2ccccc2n1C1CCN(Cc2ccc(-c3nc4cc5[nH]cnc5cc4nc3-c3ccccc3)cc2)CC1 | kinase still bound, per cent of control | % | 100 |
| COc1ccc(N(C(=O)Oc2cc(C(=O)Nc3cccc(C(F)(F)F)c3)ccc2C)c2ccnc(Nc3ccc(N4CCN(C)CC4)cc3)n2)c(OC)c1 | kinase still bound, per cent of control | % | 100 |

Test system CAMK2G (human) (UniProt Q13555); read-out kinase still bound, per cent of control; what value for `CCN(CCO)CCCOc1ccc2c(Nc3cc(CC(=O)Nc4cccc(F)c4)[nH]n3)ncnc2c1` ?
100

For the record `CCN1CCN(Cc2ccc(NC(=O)c3ccc(C)c(/C=C/c4cnc5[nH]ccc5c4OC)c3)cc2C(F)(F)F)CC1` , what value of kinase still bound, per cent of control is listed for CAMK2G (human) (UniProt Q13555)?
100

Fill in the recorded kinase still bound, per cent of control for this compound, with CAMK2G (human) (UniProt Q13555) as test system: `CCCS(=O)(=O)Nc1ccc(F)c(C(=O)c2c[nH]c3ncc(Cl)cc23)c1F`
96

Recall the recorded kinase still bound, per cent of control for COc1cc(C)c(Sc2cnc(NC(=O)c3ccc(CNC(C)C(C)C)cc3)s2)cc1C(=O)N1CCN(C(C)=O)CC1 (stereo not drawn) with CAMK2G (human) (UniProt Q13555) and state it.
100

Give CAMK2G (human) (UniProt Q13555) kinase still bound, per cent of control for `COc1cc2ncnc(Nc3cccc(Cl)c3)c2cc1OC`
77
